Molecular target: T1, human complement component C5 (human, UniProt P01031 19-673; P01031 678-1676)
T1 construct: mature; Mature C5 is a disulphide-linked beta and alpha chain cut from one precursor; Terbium-labelled in the FRET assays, biotinylated in part of the phage ELISA; also called human C5; C5-Tb
T1 sequence (P01031 19-673 limits assumed, chain 1 of 2): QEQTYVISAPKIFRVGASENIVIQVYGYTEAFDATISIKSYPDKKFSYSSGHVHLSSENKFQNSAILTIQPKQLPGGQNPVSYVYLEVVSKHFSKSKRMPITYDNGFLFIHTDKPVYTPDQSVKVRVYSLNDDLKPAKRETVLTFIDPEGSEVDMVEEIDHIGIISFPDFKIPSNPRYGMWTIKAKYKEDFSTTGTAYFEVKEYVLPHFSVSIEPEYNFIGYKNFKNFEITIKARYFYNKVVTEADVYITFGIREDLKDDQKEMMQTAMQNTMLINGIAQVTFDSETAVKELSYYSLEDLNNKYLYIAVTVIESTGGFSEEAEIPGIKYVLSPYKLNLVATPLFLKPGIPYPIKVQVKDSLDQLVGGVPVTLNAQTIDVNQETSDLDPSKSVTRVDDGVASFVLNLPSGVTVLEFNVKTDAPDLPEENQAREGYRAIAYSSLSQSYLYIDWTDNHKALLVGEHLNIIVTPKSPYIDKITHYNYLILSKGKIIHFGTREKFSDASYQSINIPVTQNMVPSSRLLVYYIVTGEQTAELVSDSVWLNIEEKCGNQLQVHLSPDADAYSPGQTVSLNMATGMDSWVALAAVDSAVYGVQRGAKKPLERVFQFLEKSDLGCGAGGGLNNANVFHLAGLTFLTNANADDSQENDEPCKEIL
T1 sequence (P01031 678-1676 limits assumed, chain 2 of 2): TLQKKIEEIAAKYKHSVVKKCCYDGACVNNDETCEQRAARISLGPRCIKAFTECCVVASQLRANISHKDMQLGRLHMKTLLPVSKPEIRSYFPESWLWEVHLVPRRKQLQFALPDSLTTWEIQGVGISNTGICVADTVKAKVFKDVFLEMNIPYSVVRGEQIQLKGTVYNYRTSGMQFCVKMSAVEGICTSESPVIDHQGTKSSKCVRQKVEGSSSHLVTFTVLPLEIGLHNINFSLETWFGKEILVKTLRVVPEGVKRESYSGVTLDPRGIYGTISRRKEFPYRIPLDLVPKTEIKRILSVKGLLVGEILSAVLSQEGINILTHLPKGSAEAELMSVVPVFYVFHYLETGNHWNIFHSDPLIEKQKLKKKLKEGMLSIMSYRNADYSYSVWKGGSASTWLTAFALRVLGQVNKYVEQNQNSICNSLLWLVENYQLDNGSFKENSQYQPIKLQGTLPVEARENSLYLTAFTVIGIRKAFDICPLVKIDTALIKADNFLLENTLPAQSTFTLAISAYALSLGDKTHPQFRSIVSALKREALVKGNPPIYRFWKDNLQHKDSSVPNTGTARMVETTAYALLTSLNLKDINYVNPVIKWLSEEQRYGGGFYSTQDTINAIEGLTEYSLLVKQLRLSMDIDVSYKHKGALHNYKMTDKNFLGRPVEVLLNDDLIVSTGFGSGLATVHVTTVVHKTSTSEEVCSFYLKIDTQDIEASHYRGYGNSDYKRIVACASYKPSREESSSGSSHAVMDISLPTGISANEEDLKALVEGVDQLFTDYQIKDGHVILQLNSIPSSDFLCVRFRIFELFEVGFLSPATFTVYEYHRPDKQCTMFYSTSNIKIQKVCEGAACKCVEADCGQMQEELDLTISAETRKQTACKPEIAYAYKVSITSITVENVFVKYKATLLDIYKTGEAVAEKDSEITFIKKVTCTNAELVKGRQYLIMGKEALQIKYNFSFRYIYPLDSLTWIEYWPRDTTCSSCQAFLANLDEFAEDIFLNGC
Test: SPR multi-cycle kinetics, human C5 immobilised, mean of n=3
Ends that are not written are not given here. * marks the point of attachment. Palmitoyl = CCCCCCCCCCCCCCCC(=O)*
observable: kon

binder	kon
GCPPGYKSGVDCSPGSECKWGCYAVDGRRYGGYGADSGVGS [K57chemFE knob domain peptide]	260000 M⁻¹ s⁻¹
VCPDGFNWGYGCAAGSSRFCTRHDWCCYDERADSHTYGFCTGNRV (disulfide (positions not given here); not fully specified, Disulphides formed in glutathione redox buffer; also called K8chemFE; K8chem) [K8 knob domain peptide, chemically synthesised, free energy method]	70500 M⁻¹ s⁻¹
Palmitoyl-GCPPGYKSGVDCSPGSECKWGCYAVDGRRYGGYGADSGVGS (also: disulphides formed by free energy method, pairing not given here) [K57chemFE-Palmitoyl]	51100 M⁻¹ s⁻¹
TCPEGWSECGVAIYGYECGRWGCGHFLNSGPNISPYVST (also called chemical K92) [K92chemFE knob domain peptide]	283000 M⁻¹ s⁻¹

Here is another binder to look at.
Inquiry: Quick one: kon of cyclo(VCPDGFNWGYGCAAGSSRFCTRHDWCCYDERADSHTYGFCTGNRV) (also: disulphides formed by free energy method, pairing not given here, Head-to-tail cyclised K8chemFE) [K8 chemFE cyclic] ?
Reply text: 94000 M⁻¹ s⁻¹

Data provenance: patent US20240024520A1
